biological target: human RORγt ligand binding domain (RORγt LBD) (Homo sapiens (Human), UniProt P51449); assay: RORγt ThermoFluor® assay (thermal shift binding); details: ThermoFluor® Assay, Kd
Sequence (P51449 other isoform, or with tags, fused parts or gaps): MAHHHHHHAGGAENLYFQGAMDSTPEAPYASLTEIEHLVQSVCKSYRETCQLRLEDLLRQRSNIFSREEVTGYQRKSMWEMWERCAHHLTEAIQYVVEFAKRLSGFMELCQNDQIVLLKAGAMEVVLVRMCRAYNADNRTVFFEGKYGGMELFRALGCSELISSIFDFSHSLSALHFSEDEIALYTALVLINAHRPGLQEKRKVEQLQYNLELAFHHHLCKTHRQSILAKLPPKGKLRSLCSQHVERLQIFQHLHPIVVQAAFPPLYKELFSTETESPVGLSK
pKd: −log10 of the molar value.
quantityKind: pKd

{"compound": "CCn1nc(C(=O)NC[C@H]2CC[C@H](S(C)(=O)=O)CC2)c(Cl)c1-c1ccc(C[C@@H](C)C(F)(F)F)cc1OC (single isomer, unassigned)", "quantityKind": "pKd", "reportedMeasurement": 9.22}
{"compound": "COCCn1nc(C(=O)NC[C@H]2CC[C@H](S(C)(=O)=O)CC2)c(Cl)c1-c1ccc(N[C@H](C)C(F)(F)F)cc1OC", "quantityKind": "pKd", "reportedMeasurement": 7.74}
{"compound": "CCn1nc(C(=O)NC[C@H]2CC[C@H](S(C)(=O)=O)CC2)c(Cl)c1-c1ccc(C2(O)CCC(C(F)(F)F)CC2)cc1OC(F)F (single isomer, unassigned) [Example 114]", "quantityKind": "pKd", "reportedMeasurement": 6.01}

* * *

molecular target: full-length human RORγt (Homo sapiens (Human), UniProt P51449); assay: RORγt (full-length human) reporter assay, conditions A or B, HEK293T cells; type: cell-based; settings: HEK-293T, read-out: RORγt (FL) Reporter Assay A or B, % inhibition
Sequence (P51449 other isoform, or with tags, fused parts or gaps): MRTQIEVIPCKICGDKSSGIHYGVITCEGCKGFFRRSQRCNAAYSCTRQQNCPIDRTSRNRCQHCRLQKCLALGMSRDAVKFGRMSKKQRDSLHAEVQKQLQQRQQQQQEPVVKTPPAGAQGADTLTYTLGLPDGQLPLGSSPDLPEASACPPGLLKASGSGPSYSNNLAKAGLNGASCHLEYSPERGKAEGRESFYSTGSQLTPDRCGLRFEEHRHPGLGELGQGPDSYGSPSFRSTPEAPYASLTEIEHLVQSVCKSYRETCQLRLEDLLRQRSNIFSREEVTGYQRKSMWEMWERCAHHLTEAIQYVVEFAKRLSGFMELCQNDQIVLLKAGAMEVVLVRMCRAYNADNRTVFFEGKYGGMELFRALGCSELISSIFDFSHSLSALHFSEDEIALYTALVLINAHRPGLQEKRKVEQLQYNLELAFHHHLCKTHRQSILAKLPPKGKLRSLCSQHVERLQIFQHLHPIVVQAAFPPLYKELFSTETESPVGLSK
Below: a set of entries, each annotated with reported inhibition at 3 µM.

{"compound": "CCn1nc(C(=O)NC[C@]2(O)CC[C@@H](S(C)(=O)=O)CC2)c(Cl)c1-c1ccc(C(O)C2(C(F)(F)F)CC2)cc1OC(F)F (stereo partly shown)", "inhibition at 3 µM": "88%"}
{"compound": "CCn1nc(C(=O)NC[C@]2(O)CC[C@@H](S(C)(=O)=O)CC2)c(Cl)c1-c1ccc(C(=O)C(C)(C)C(F)(F)F)cc1OC(F)F", "inhibition at 3 µM": "28%"}
{"compound": "CCn1nc(C(=O)NC[C@]2(O)CC[C@@H](S(C)(=O)=O)CC2)c(Cl)c1-c1ccc([C@H](O)C(C)(C)C(F)(F)F)cc1OC(F)F (single isomer, unassigned)", "inhibition at 3 µM": "104%"}
{"compound": "CCn1nc(C(=O)NC[C@]2(O)CC[C@@H](S(C)(=O)=O)CC2)c(Cl)c1-c1ccc(CC(C)(C)C(F)(F)F)cc1C#N", "inhibition at 3 µM": "88%"}

* * *

target: full-length human RORγt (Homo sapiens (Human), UniProt P51449); assay: RORγt (full-length human) reporter assay, conditions A or B, HEK293T cells; type: cell-based; conditions: HEK-293T, read-out: RORγt (FL) Reporter Assay A or B, % inhibition @ 6 μM; 6 μM compound concentration
inhibition at 6 µM values for the molecules below.

{"molecule": "CCn1nc(C(=O)NC[C@]2(C(=O)O)CC[C@H](S(C)(=O)=O)CC2)c(Cl)c1-c1ccc(N[C@H](C)C(F)(F)F)cc1OC (relative stereo)", "inhibition at 6 µM": "-10%"}
{"molecule": "CCn1nc(C(=O)NC[C@]2(C(=O)O)CC[C@H](S(C)(=O)=O)CC2)c(Cl)c1-c1ccc(CC(C)(C)C(F)(F)F)cc1OC(F)F", "inhibition at 6 µM": "106%"}
{"molecule": "CCn1nc(C(=O)NC[C@]2(C(=O)O)CC[C@@H](S(C)(=O)=O)CC2)c(Cl)c1-c1ccc(CC(C)(C)C(F)(F)F)cc1OC(F)F", "inhibition at 6 µM": "14%"}
{"molecule": "CCn1nc(C(=O)NC[C@]2(C(=O)O)CC[C@@H](S(C)(=O)=O)CC2)c(Cl)c1-c1ccc(N[C@H](C)C(F)(F)F)cc1OC (relative stereo)", "inhibition at 6 µM": "94%"}
{"molecule": "CCn1nc(C(=O)NC[C@H]2CC[C@@H](S(C)(=O)=O)CO2)c(Cl)c1-c1ccc(N[C@H](C)C(F)(F)F)cc1OC (relative stereo)", "inhibition at 6 µM": "67%"}

* * *

molecular target: full-length human RORγt (Homo sapiens (Human)); assay: RORγt (full-length human) reporter assay, conditions A or B, HEK293T cells; assay type: cell-based; conditions: HEK-293T; 1 μM compound concentration (footnote ***); read-out: RORγt (FL) Reporter Assay A or B, % inhibition
quantityKind: inhibition at 1 µM (%)

{"molecule": "CCn1nc(C(=O)NC[C@]2(O)CC[C@@H](S(N)(=O)=O)CC2)c(C)c1-c1ccc(C[C@H](C)C(F)(F)F)cc1OC(F)F (single isomer, unassigned)", "unitOfMeasure": "%", "reportedMeasurement": 130}
{"molecule": "CCn1nc(C(=O)NC[C@]2(O)CC[C@@H](S(C)(=O)=O)CC2)c(Cl)c1-c1ccc(C2(O)CCC(C(F)(F)F)CC2)cc1OC(F)F (single isomer, unassigned)", "unitOfMeasure": "%", "reportedMeasurement": 44}
{"molecule": "CCn1nc(C(=O)NC[C@]2(O)CC[C@@H](S(C)(=O)=O)CC2)c(Cl)c1-c1ccc([C@@H](O)C2(C(F)(F)F)CC2)cc1OC(F)F (single isomer, unassigned)", "unitOfMeasure": "%", "reportedMeasurement": 95}
{"molecule": "CCn1nc(C(=O)NC[C@]2(O)CC[C@@H](S(C)(=O)=O)CC2)c(Cl)c1-c1ccc([C@H](O)C2(C(F)(F)F)CC2)cc1OC(F)F (single isomer, unassigned)", "unitOfMeasure": "%", "reportedMeasurement": 75}
{"molecule": "CCn1nc(C(=O)NC[C@H]2CC[C@H](S(N)(=O)=O)CC2)c(Cl)c1-c1ccc(CC(C)(C)C(F)(F)F)cc1OC(F)F", "unitOfMeasure": "%", "reportedMeasurement": 113}

* * *

# reported inhibition at 2 µM; entries follow
target: full-length human RORγt (Homo sapiens (Human), UniProt P51449); experiment: RORγt (full-length human) reporter assay, conditions A or B, HEK293T cells; assay type: cell-based; conditions: HEK-293T; 2 μM compound concentration; read-out: RORγt (FL) Reporter Assay A or B, % inhibition
quantityKind: inhibition at 2 µM (%)

{"compound": "CCn1nc(C(=O)NC[C@@]2(O)CC[C@H](S(C)(=O)=O)C[C@@H]2O)c(Cl)c1-c1ccc(CC(C)(C)C(F)(F)F)cc1OC(F)F (single isomer, unassigned)", "unitOfMeasure": "%", "reportedMeasurement": 103}
{"compound": "CCc1c(C(=O)NC[C@H]2CC[C@H](S(C)(=O)=O)CC2)nn(CC)c1-c1ccc(N[C@H](C)C(F)(F)F)cc1OC", "unitOfMeasure": "%", "reportedMeasurement": 100}
{"compound": "CCn1nc(C(=O)NC[C@H]2CC[C@H](S(C)(=O)=O)CC2)c(Cl)c1-c1ccc(N2CC(C(F)(F)F)C2)cc1OC", "unitOfMeasure": "%", "reportedMeasurement": 87}
{"compound": "CCn1nc(C(=O)NC[C@H]2CC[C@H](S(C)(=O)=O)CC2)c(Cl)c1-c1ccc(OCC2CC2(F)F)cc1OC (single isomer, unassigned)", "unitOfMeasure": "%", "reportedMeasurement": 66}
{"compound": "COCCn1nc(C(=O)NC[C@]2(O)CC[C@@H](S(C)(=O)=O)CC2)c(Cl)c1-c1ccc(CC(C)(C)C(F)(F)F)cc1OC(F)F", "unitOfMeasure": "%", "reportedMeasurement": 99}
{"compound": "CCn1nc(C(=O)NC[C@]2(O)CC[C@@H](S(C)(=O)=O)CC2)c(Cl)c1-c1ccc(CCC(F)(F)F)cc1F", "unitOfMeasure": "%", "reportedMeasurement": 41}

* * *

molecular target: full-length human RORγt (Homo sapiens (Human)); assay: RORγt (full-length human) reporter assay, conditions A or B, HEK293T cells; type: cell-based; details: HEK-293T, read-out: RORγt (FL) Reporter Assay A or B, % inhibition @ 6 μM; 6 μM compound concentration
Recorded inhibition at 6 µM for the following compounds

{"compound": "CCn1nc(C(=O)NC[C@H]2CC[C@H](S(C)(=O)=O)CC2)c(C)c1-c1ccc(N[C@H](C)C(F)(F)F)cc1OC", "systemTested": "full-length human RORγt (Homo sapiens (Human))", "inhibition at 6 µM (%)": 99}
{"compound": "CCn1nc(C(=O)NC[C@]2(C(N)=O)CC[C@@H](S(C)(=O)=O)CC2)c(Cl)c1-c1ccc(N[C@H](C)C(F)(F)F)cc1OC", "systemTested": "full-length human RORγt (Homo sapiens (Human))", "inhibition at 6 µM (%)": 102}
{"compound": "CCn1nc(C(=O)NC[C@H]2CC[C@H](S(C)(=O)=O)CC2)c(Cl)c1-c1ccc(NCC(F)(F)F)cc1OC", "systemTested": "full-length human RORγt (Homo sapiens (Human))", "inhibition at 6 µM (%)": 105}
{"compound": "CCn1nc(C(=O)NC[C@H]2CC[C@H](S(C)(=O)=O)CC2)c(F)c1-c1ccc(N[C@H](C)C(F)(F)F)cc1OC", "systemTested": "full-length human RORγt (Homo sapiens (Human))", "inhibition at 6 µM (%)": 105}
{"compound": "CCn1nc(C(=O)NC[C@]2(C#N)CC[C@H](S(C)(=O)=O)CC2)c(Cl)c1-c1ccc(N[C@H](C)C(F)(F)F)cc1OC", "systemTested": "full-length human RORγt (Homo sapiens (Human))", "inhibition at 6 µM (%)": 88}
{"compound": "COCCn1nc(C(=O)NC[C@H]2CC[C@H](S(C)(=O)=O)CC2)c(Cl)c1-c1ccc(N[C@H](C)C(F)(F)F)cc1OC", "systemTested": "full-length human RORγt (Homo sapiens (Human))", "inhibition at 6 µM (%)": 104}
{"compound": "CCn1nc(C(=O)NC[C@]2(C(N)=O)CC[C@H](S(C)(=O)=O)CC2)c(Cl)c1-c1ccc(N[C@H](C)C(F)(F)F)cc1OC", "systemTested": "full-length human RORγt (Homo sapiens (Human))", "inhibition at 6 µM (%)": 6}
{"compound": "CCOC(=O)[C@]1(CNC(=O)c2nn(CC)c(-c3ccc(N[C@H](C)C(F)(F)F)cc3OC)c2Cl)CC[C@H](S(C)(=O)=O)CC1 (relative stereo)", "systemTested": "full-length human RORγt (Homo sapiens (Human))", "inhibition at 6 µM (%)": 101}
